test system: PBMC; test: Stimulation of TNFalpha production in human PBMC at 1 ug/mL after 24 hrs by flow cytometry with cytometric bead array method; format: functional, cell-based
Activity calls are given as the source filed them. The calls are words filed in the database; no cut-off is given here.

| molecule | assay-target | Activity |
| --- | --- | --- |
| CC(C)=CCOc1c(C)cc(O)c2c1C(O)Oc1c(CC=C(C)C)cc(CC=C(C)C)c(O)c1C2=O (stereo not drawn) [ARUGOSINS G] | PBMC | inactive |
| C=C(C)[C@H]1COc2c(C)cc3oc4c(CC=C(C)C)ccc(O)c4c(=O)c3c2[C@@H]1O [SHAMIXANTHONE] | PBMC | inactive |
| CC(C)=CCOc1c(C)cc2oc3c(CC=C(C)C)ccc(O)c3c(=O)c2c1CO [EMERICELLIN] | PBMC | inactive |
| CC(C)=CCc1ccc(O)c(C(=O)c2c(O)cc(C)c(O)c2C=O)c1O [ARUGOSINS H] | PBMC | inactive |
| O=C1OC(O)C(Cc2ccccc2)=C1c1ccccc1 (stereo not drawn) [MICROPERFURANONE] | PBMC | inactive |
| CC(C)=CCOc1c(C)cc(O)c2c1C(O)Oc1ccc(CC=C(C)C)c(O)c1C2=O (stereo not drawn) [ARUGOSIN A] | PBMC | inactive |
| CC(C)=CCOc1c(C)cc(O)c2c1C(O)Oc1c(CC=C(C)C)ccc(O)c1C2=O (stereo not drawn) [ARUGOSIN B] | PBMC | inactive |
| C=C1CC[C@@H]2[C@](C)(CC[C@H](O)[C@@]2(C)CCC=C(C)C)[C@@H]1Cc1c[nH]c2ccccc12 [EMINDOLE DA] | PBMC | inactive |

Taken from ChEMBL document CHEMBL1142597.
